molecular target: DR4Dw4 (DRA1*0101 DRB1*0401) (Homo sapiens, UniProt P01903+P01911, A100K/A169T/F76Y/I96L/K127E/L162R/M171V/N62H/P40V/Q125Y/R42H/S133A/S149N/S66Y/V115G/V209L/W38E); assay: Competitive binding to MHC-II protein DR4Dw4
Numbered stars: 1 amine (or outer) side, 2 acyl side, 3 side chain; on linkers, the order of the positions; unused ones are H or OH. Square brackets hold non-standard residues; d marks the D form. Peptide text beside a SMILES is read from it. * marks the point of attachment. ξ: configuration not given here. Gly(1-amidinopiperidin-4-yl) = N=C(N)N1CCC([C@H](N)C(=O)O)CC1; X1 = CC(C)c1oc([C@H](CO)N[*:1])nc1C(=O)[*:2]; Pro(3R-Ph) = O=C(O)[C@H]1NCC[C@@H]1c1ccccc1; Tic = O=C(O)[C@@H]1Cc2ccccc2CN1; Cha = N[C@@H](CC1CCCCC1)C(=O)O; ξDisc = O=C(O)C1NCc2ccccc21; X4 = OCCOCCN(CCc1ccccc1)*; Nle = CCCC[C@H](N)C(=O)O; X2 = OCCOCCN(Cc1ccccc1)*; NHBn = c1ccc(CN*)cc1
Lab note: anything with IC50 below 0.7 µM is marked fulfilled; values at 0.7 µM or higher are marked not fulfilled.

>>> assigned_category("CSCC[C@H](NC(=O)C1c2ccccc2CN1C(=O)[C@@H](NC(=O)[C@H](CC1CCCCC1)NC(C)=O)C1CCN(C(=N)N)CC1)C(=O)N1CC[C@H](c2ccccc2)[C@H]1C(=O)N[C@@H](CO)c1nc(C(=O)N(C)C)c(C(C)C)o1 (stereo partly drawn) [Compound P41-1] (Ac-[Cha][Gly(1-amidinopiperidin-4-yl)][ξDisc]M[Pro(3R-Ph)][X1]-NMe2)")
"fulfilled"
>>> assigned_category("CSCC[C@H](NC(=O)[C@@H]1Cc2ccccc2CN1C(=O)[C@H](CCCNC(=N)N)NC(=O)[C@H](CC1CCCCC1)NC(C)=O)C(=O)N1CC[C@H](c2ccccc2)[C@H]1C(=O)N[C@@H](CO)c1nc(C(=O)N(C)C)c(C(C)C)o1 [Compound P33] (Ac-[Cha]R[Tic]M[Pro(3R-Ph)][X1]-NMe2)")
"fulfilled"
>>> assigned_category("CCCC[C@H](NC(=O)[C@@H]1Cc2ccccc2CN1C(=O)[C@H](CCCNC(=N)N)NC(=O)[C@H](CC1CCCCC1)NC(C)=O)C(=O)N(CCOCCO)CCc1ccccc1 [Compound P88] (Ac-[Cha]R[Tic][Nle]-X4)")
"not fulfilled"
>>> assigned_category("CSCC[C@H](NC(=O)C1c2ccccc2CN1C(=O)[C@H](CCCNC(=N)N)NC(=O)[C@H](CC1CCCCC1)NC(C)=O)C(=O)N1CC[C@H](c2ccccc2)[C@H]1C(=O)N[C@@H](CO)c1nc(C(=O)N(C)C)c(C(C)C)o1 (stereo partly drawn) [Compound P40-1] (Ac-[Cha]R[ξDisc]M[Pro(3R-Ph)][X1]-NMe2)")
"fulfilled"
>>> assigned_category("CCCC[C@H](NC(=O)[C@@H]1Cc2ccccc2CN1C(=O)[C@@H](NC(=O)[C@H](CC1CCCCC1)NC(C)=O)C1CCN(C(=N)N)CC1)C(=O)NCc1ccccc1 [Compound P68, Ac-Cha-Gpg-Tic-Nle-N(H)Bn] (Ac-[Cha][Gly(1-amidinopiperidin-4-yl)][Tic][Nle]-NHBn)")
"not fulfilled"
>>> assigned_category("CSCC[C@H](NC(=O)[C@@H]1Cc2ccccc2CN1C(=O)[C@@H](NC(=O)[C@H](CC1CCCCC1)NC(C)=O)C1CCN(C(=N)N)CC1)C(=O)N1CC[C@H](c2ccccc2)[C@H]1C(N)=O [Compound P80, Ac-Cha-Gpg-Tic-Met-βPhProNH2] (Ac-[Cha][Gly(1-amidinopiperidin-4-yl)][Tic]M[Pro(3R-Ph)]-NH2)")
"fulfilled"
>>> assigned_category("CCCC[C@H](NC(=O)[C@@H]1Cc2ccccc2CN1C(=O)[C@@H](NC(=O)[C@H](CC1CCCCC1)NC(C)=O)C1CCN(C(=N)N)CC1)C(=O)N(CCOCCO)Cc1ccccc1 [Compound P101, Ac-Cha-Gpg-Tic-Nle-N(Bn)CH2CH2OCH2CH2OH] (Ac-[Cha][Gly(1-amidinopiperidin-4-yl)][Tic][Nle]-X2)")
"not fulfilled"
>>> assigned_category("CSCC[C@H](NC(=O)[C@@H]1Cc2ccccc2CN1C(=O)[C@@H](NC(=O)[C@H](CC1CCCCC1)NC(C)=O)C1CCN(C(=N)N)CC1)C(=O)N(CCOCCO)Cc1ccccc1 [Compound P102, Ac-Cha-Gpg-Tic-Met-N(Bn)CH2CH2OCH2CH2OH] (Ac-[Cha][Gly(1-amidinopiperidin-4-yl)][Tic]M-X2)")
"not fulfilled"
